assay: background-corrected fluorescence of 3'-dye-labeled ssDNA relative to brightest sequence (3'-GCGCG) (fraction); higher = brighter dye fluorescence (less quenching); details: dye: Cy3 (3' terminal)
Measure Name: background-corrected fluorescence
Could you respond with only the numeric value?

sequence_string="TTTTTTGCTGCGCATGATCATTTTTTTTTTTTTTTAATCG [GCTAA]" recorded_result=0.504
sequence_string="TTTTTTCAGCATGAGCAGCATTTTTTTTTTTTTTTGTCTT [TTCTG]" recorded_result=0.505

Challenge: Return background-corrected fluorescence for the following sequence: TTTTTTGATGCTGATGATGCTTTTTTTTTTTTTTTCACCA [ACCAC]
Response given: 0.493

Challenge: Return background-corrected fluorescence for the following sequence: TTTTTTCATGAGCATGAGCATTTTTTTTTTTTTTTGCTCT [TCTCG]
Response given: 0.497
